run description: Stability test (residual rate by HPLC, odor, coloring)
Format: physicochemical
test conditions: 1% aqueous solution, pH 6, stored at 50° C.; four weeks later
value type: Residual rate

Before answering, review these 4 worked examples.
CCCCCCCCC(O)COC1=C(OCC(C)(C)O)C(=O)O[C@@H]1[C@@H](O)CO (stereo partly drawn) [Synthesis Example 36] : ⊚ (⊚: 90% or more)
CC(O)COC1=C(OCC(C)(C)O)[C@@H]([C@@H](O)CO)OC1=O (stereo partly drawn) [Synthesis Example 39] : ⊚ (⊚: 90% or more)
CC(C)(O)COC1=C(O)C(=O)O[C@@H]1[C@@H](O)CO [Synthesis Example 2, 3-O-(2-hydroxyisobutyl) ascorbic acid] : ⊚ (⊚: 90% or more)
CCCCCCCCCCCCCCOC1=C(OCC(C)(C)O)[C@@H]([C@@H](O)CO)OC1=O [Synthesis Example 24] : ⊚ (⊚: 90% or more)

The molecule CCCCCCCCCCCCOCC(O)COC1=C(OCC(C)(C)O)C(C(O)CO)OC1=O (stereo not drawn) [Synthesis Example 31] showed Residual rate equal to ⊚ (⊚: 90% or more)
